Where do these numbers come from? They come from patent US6008395A.

// T/C % lookup, one value per entry
System: L 1210
assay: (Oral) carcinostatic effect L 1210, ip-po
Assay type: in vivo, CDF1 mouse
experimental parameters: 10 mg/kg po, Q02D×05, suspension in olive oil; 140% or more judged effective
Use % as the unit, but write only the number.

CCCCC(=O)[O-].NC1CCCCC1N.O=C([O-])C(=O)[O-].[Cl-].[Pt+4] [C5--OHP · Cl, t,t,c,c-[PtCl(OCOC4 H9)(ox)(1R,2R-dach)]]; 143
CCCCCCC(=O)[O-].NC1CCCCC1N.O=C([O-])C(=O)[O-].[Cl-].[Pt+4] [C7--OHP · Cl, [PtCl(OCOC6 H13) (oxalato) (1R,2R-dach)]]; 151
CCCCCC(=O)[O-].NC1CCCCC1N.O=C([O-])C(=O)[O-].[Br-].[Pt+4] [C6--OHP · Br]; 180

Need T/C % of CCCCC(=O)[O-].NC1CCCCC1N.O=C([O-])C(=O)[O-].[Br-].[Pt+4] [C5--OHP · Br, t,t,c,c-[PtBr(OCOC4 H9)(ox)(1R,2R-dach)]] , thanks.
163

What does the data say about its T/C %? Entry: CCCCCC(=O)[O-].NC1CCCCC1N.O=C([O-])C(=O)[O-].[Cl-].[Pt+4] [C6--OHP · Cl]
168
